# method notes: qHTS Assay for Spectroscopic Profiling in 4-MU Spectral Region
# run parameters: compound autofluorescence, 340/450 nm, 4-MU equivalents
Out of some 59,000 compounds screened, about 6,200 (11%) were called active. Inconclusive results (about 9%) are left out. No stated cut-off is given here; in the data, active means max dye-equivalent concentration above about 10 nM; inconclusive means mostly about 1.1 nM to 9.6 nM; inactive means weaker than that. This excerpt belongs to a sample that is enriched for actives.
Write down the outcome that applies. Available outcomes: active, inactive

Previously resolved entries follow.
COc1ccc2c(c1)CCc1c(C(=O)N3CCCC3)noc1-2; inactive
CCOC(=O)N1CCN(C(=O)c2n[nH]c(=O)c3ccccc23)CC1; inactive

We now examine a further compound.
INPUT: Identify the outcome logged in this assay for the compound shown: `COc1ccc(CCNS(=O)(=O)c2ccc(F)cc2)cc1OC`
OUTPUT: inactive

----------
# method notes: qHTS Assay for Spectroscopic Profiling in 4-MU Spectral Region
# run parameters: compound autofluorescence, 340/450 nm, 4-MU equivalents
The whole screen tested about 59,000 compounds, of which about 6,200 (11%) were called active. Inconclusive results (about 9%) are left out. No stated cut-off is given here; in the data, active means max dye-equivalent concentration above about 10 nM; inconclusive means mostly about 1.1 nM to 9.6 nM; inactive means weaker than that. The entries come from a sample that favours actives as a whole.
Write down the outcome that applies. Available outcomes: True (active), False (inactive)

Previously resolved entries follow.
CNc1cc(-c2c(C)noc2C)ncn1; False
CC(C)(C)n1nnnc1C(c1cccs1)N(Cc1cccnc1)CC1CCCO1 (stereo unspecified); False
CCCCN(C)C(=O)C1CCN(Cc2ccccn2)CC1; False
COC(=O)N1CCC2(CCCN(Cc3ccccc3OC)C2)CC1; False
COc1ccc2[nH]c(=O)c(CN(Cc3nnnn3CCc3ccccc3)CC3CCCO3)cc2c1 (stereo unspecified); True
COc1cccc(N2C(=O)CC(N3CCN(S(=O)(=O)c4ccccc4)CC3)C2=O)c1 (stereo unspecified); False

INPUT: Identify the outcome logged in this assay for the compound shown: `C=CCNC(=O)c1ccc(C)c(Br)c1`
OUTPUT: False

INPUT: Identify the outcome logged in this assay for the compound shown: `CC(=O)NC1=NC(=O)CS1`
OUTPUT: False

INPUT: Identify the outcome logged in this assay for the compound shown: `Cc1noc(C)c1-c1cc(NCc2cccnc2)ncn1`
OUTPUT: False

INPUT: Identify the outcome logged in this assay for the compound shown: Cc1cc(C)c2cc(CN(Cc3cccs3)Cc3nnnn3CC3CCCO3)c(=O)[nH]c2c1 (stereo unspecified)
OUTPUT: False

INPUT: Identify the outcome logged in this assay for the compound shown: `COc1ccc(-c2cc(C(F)(F)F)nc(SCCC(=O)NCc3ccco3)n2)cc1`
OUTPUT: False

----------
# method notes: qHTS Assay for Spectroscopic Profiling in 4-MU Spectral Region
# run parameters: compound autofluorescence, 340/450 nm, 4-MU equivalents
# Text: NIH Molecular Libraries Screening Centers Network [MLSCN] NIH Chemical Genomics Center [NCGC] […] While the most informative fluorescent profiling data set is obtained by performing a full excitation and emission scan of each well by using a monochromator-based plate reader, such an approach is practical only on a very limited scale as scanning each well requires long time. […]
In all, about 59,000 compounds went through this assay and about 6,200 (11%) were called active. Another 9% or so got no clear call; they are omitted. Cut-off read from the data, not from the text of the source: active = max dye-equivalent concentration above about 10 nM; inconclusive = mostly about 1.1 nM to 9.6 nM; inactive = weaker than that. The full list was thinned out, with actives kept by preference.
Write down the outcome that applies. Available outcomes: active, inactive

COc1ccc(-n2ncc3c(N4CCCc5ccccc54)ncnc32)cc1; active
O=C(COC(=O)C12CC3CC(CC(C3)C1)C2)NCc1ccco1; active

We now examine a further compound.
INPUT: Identify the outcome logged in this assay for the compound shown: `COc1ccccc1C(=O)n1nc(-c2ccccc2)nc1N`
OUTPUT: inactive
